This document collects GI50 values reported for HCT-15.

CC(C)OC(=O)[C@@H](O)[C@H](CO)C1=CC([Si](C)(C)c2ccccc2)=CON1: > 100 µM

In one line, give reported GI50 of the entry CCC#CCCCCCCCCC(F)C(=O)O (stereo not drawn) . > 100 µM

In one line, give reported GI50 of the entry `O=c1cc(CC(O)(C(F)(F)Cl)C(F)(F)Cl)[nH]n1-c1ccccc1` . > 100 µM

* * *

- Test system: RXF 393
- ASSAY OVERVIEW: NCI tumour cell line growth inhibition, 48 h
Activity calls are given as the source filed them. Cut-off read from the data, not from the text of the source: active = GI50 up to about 1.1 µM and inactive = higher.
QUANTITY: GI50

Field: example entries. Status: answers known.
COCCN(CCNC(=O)c1cccc2c(N)c3cccc(C)c3nc12)CCOC: 1.93 µM (inactive)
Oc1cc(N2CCCC2)ccc1/C=N/N1C(=S)N(c2ccccc2)C(=N\c2ccccc2)/C1=N/c1ccccc1: 14.2 µM (inactive)
NC(=S)N/N=C1\CCCCc2ccccc21: > 10 µM (inactive)
CC(C)(C)c1cc(C=C(C#N)C#N)cc(C(C)(C)C)c1O: 2.55 µM (inactive)

In one line, give reported GI50 of the entry `Cc1ccc(/N=N/c2c(O)ccc3cc(S(=O)(=O)O)ccc23)c(C)c1` . > 100 µM (inactive)

In one line, give reported GI50 of the entry `Cc1oc(N)c(S(=O)(=O)/C(C#N)=C/c2ccccc2[N+](=O)[O-])c1C` . 21.9 µM (inactive)

Measured values drawn from ChEMBL document CHEMBL1201862 for this set.
